Source of measurements: patent US20250275953A1

Test: Plasma pharmacokinetics, 7 once-daily oral doses, healthy volunteers
Type: in vivo, human
Conditions: male, human, plasma, oral, 192 mg, Day 1, plasma, healthy volunteers; read-out: AUC0-24 Min, Max
measure.name: AUC(0-t)

In [3]: df
Out[3]:
                                 smiles_str                  result
0  Cc1ccc(C(=O)NNC(=O)c2c(C)cccc2Cl)cc1C#Cc1cnc2ccccc2c1  22400 to 45600 ng·h/mL

---

Test: Plasma pharmacokinetics, Parkinson's disease patients, once daily for 14 days
Format: in vivo, human
Conditions: human, 192 mg, PD patients, read-out: AUC Over Dosing Interval Median
measure.name: AUC

>>> print(df.to_string())
                                 smiles_str  measure_name         result
0  Cc1ccc(C(=O)NNC(=O)c2c(C)cccc2Cl)cc1C#Cc1cnc2ccccc2c1           AUC  24800 ng·h/mL

---

Experiment: Plasma pharmacokinetics, Parkinson's disease patients, once daily for 14 days
Assay type: in vivo, human
Conditions: human, oral, 48 mg, Day 14, plasma, PD patients, read-out: Tmax median (range)
measure.name: Tmax (h)

In [3]: df
Out[3]:
                                 smiles_str  measure_name  numeric_readout
0  Cc1ccc(C(=O)NNC(=O)c2c(C)cccc2Cl)cc1C#Cc1cnc2ccccc2c1          Tmax                2

---

Test: Plasma pharmacokinetics, Parkinson's disease patients, once daily for 14 days
Format: in vivo, human
Conditions: human, 48 mg, PD patients, read-out: AUC Over Dosing Interval Mean
measure.name: AUC (ng·h/mL)

>>> print(df.to_string())
                                 smiles_str  numeric_readout
0  Cc1ccc(C(=O)NNC(=O)c2c(C)cccc2Cl)cc1C#Cc1cnc2ccccc2c1             7910

---

Assay: Plasma pharmacokinetics, Parkinson's disease patients, once daily for 14 days
Type: in vivo, human
Settings: human, 12 mg, PD patients, read-out: AUC Over Dosing Interval Median
measure.name: AUC (ng·h/mL)

In [3]: df
Out[3]:
                                 smiles_str  unit_string  numeric_readout
0  Cc1ccc(C(=O)NNC(=O)c2c(C)cccc2Cl)cc1C#Cc1cnc2ccccc2c1      ng·h/mL             2530

---

Assay: Plasma pharmacokinetics, Parkinson's disease patients, once daily for 14 days
Assay type: in vivo, human
Conditions: human, oral, 12 mg, Day 1, plasma, PD patients
measure.name: Cmax (ng/mL)

>>> df
                                 smiles_str  numeric_readout
0  Cc1ccc(C(=O)NNC(=O)c2c(C)cccc2Cl)cc1C#Cc1cnc2ccccc2c1              255

---

Biological target: Abl (T315I) (Homo sapiens, UniProt P00519, T315I)
Experiment: Biochemical kinase assay, gatekeeper mutant Abl
pIC50: −log10 of the molar value.
measure.name: pIC50

                                 smiles_str  measure_name  numeric_readout
0  Cc1ccc(C(=O)NNC(=O)c2c(C)cccc2Cl)cc1C#Cc1cnc2ccccc2c1         pIC50             8.10
